Test system: NCI-H522
experimental protocol: NCI-60 single-dose antiproliferative screen
Assay type: cell-based
experimental context: Homo sapiens, NCI-H522, 48 h, read-out: growth percent
# reported activity at 10 µM; entries follow
Give a bare numeral; the unit % is implied.

The examples below pair each entry with its known result.
compound: COc1cc(CNC(=O)CCCC/C=C/C(C)C)ccc1OCc1cn(-c2ccccc2OC)nn1 [14l]
measured: 63.9
--
compound: COc1cc(CNC(=O)CCCC/C=C/C(C)C)ccc1OCc1cn(-c2ccc(C#N)cc2)nn1 [14j]
measured: 88.2
--
compound: COc1cc(CNC(=O)CCCC/C=C/C(C)C)ccc1OCc1cn(-c2ccc(Cl)cc2)nn1 [14a]
measured: 65.7
--
compound: COc1cc(CNC(=O)CCCC/C=C/C(C)C)ccc1OCc1cn(-c2ccc([N+](=O)[O-])cc2)nn1 [14e]
measured: 78.2
--
compound: COc1cc(CNC(=O)CCCC/C=C/C(C)C)ccc1OCc1cn(-c2ccc(C(F)(F)F)cc2)nn1 [14g]
measured: 75.6

Task item: // lookup activity at 10 µM for COc1cc(CNC(=O)CCCC/C=C/C(C)C)ccc1OCc1cn(-c2ccc(Cl)c(Cl)c2)nn1 [14d]
Reply: 69.3

Task item: // lookup activity at 10 µM for COc1cc(CNC(=O)CCCC/C=C/C(C)C)ccc1OCc1cn(-c2cccc(Cl)c2)nn1 [14b]
Reply: 69.2

###

System: UACC-257
experimental protocol: NCI-60 single-dose antiproliferative screen
Format: cell-based
experimental context: Homo sapiens, UACC-257, 48 h, read-out: growth percent
experimental endpoint: activity at 10 µM (%)
Give a bare numeral; the unit % is implied.

Task item: // lookup activity at 10 µM for COc1cc(CNC(=O)CCCC/C=C/C(C)C)ccc1OCc1cn(-c2ccc(C)cc2)nn1 [14n]
Reply: 88.2

Task item: // lookup activity at 10 µM for COc1cc(CNC(=O)CCCC/C=C/C(C)C)ccc1OCc1cn(-c2cccc(Cl)c2)nn1 [14b]
Reply: 90.1

###

Tested on: SNB-75
experimental protocol: NCI-60 single-dose antiproliferative screen
Type: cell-based
experimental context: Homo sapiens, SNB-75, 48 h, read-out: growth percent
# reported activity at 10 µM; entries follow

The examples below pair each entry with its known result.
compound: COc1cc(CNC(=O)CCCC/C=C/C(C)C)ccc1OCc1cn(-c2cc(OC)c(OC)c(OC)c2)nn1 [14m]
activity at 10 µM: 95.2%

compound: COc1cc(CNC(=O)CCCC/C=C/C(C)C)ccc1OCc1cn(-c2ccc(F)cc2)nn1 [14h]
activity at 10 µM: 83.5%

Task item: // lookup activity at 10 µM for COc1cc(CNC(=O)CCCC/C=C/C(C)C)ccc1OCc1cn(-c2ccccc2Cl)nn1 [14c]
Reply: 87.3%

Task item: // lookup activity at 10 µM for COc1cc(CNC(=O)CCCC/C=C/C(C)C)ccc1OCc1cn(-c2ccc(Cl)c(Cl)c2)nn1 [14d]
Reply: 79.1%

Task item: // lookup activity at 10 µM for COc1cc(CNC(=O)CCCC/C=C/C(C)C)ccc1OCc1cn(-c2ccc(C#N)cc2)nn1 [14j]
Reply: 94.2%

Task item: // lookup activity at 10 µM for COc1cc(CNC(=O)CCCC/C=C/C(C)C)ccc1OCc1cn(-c2ccc(Cl)cc2)nn1 [14a]
Reply: 76.4%

Task item: // lookup activity at 10 µM for COc1cc(CNC(=O)CCCC/C=C/C(C)C)ccc1OCc1cn(-c2ccc([N+](=O)[O-])cc2)nn1 [14e]
Reply: 83.9%

Task item: // lookup activity at 10 µM for COc1cc(CNC(=O)CCCC/C=C/C(C)C)ccc1OCc1cn(-c2ccc(C)cc2)nn1 [14n]
Reply: 99.5%

###

# reported activity at 10 µM; entries follow
Tested on: NCI/ADR-RES
experimental protocol: NCI-60 single-dose antiproliferative screen
Format: cell-based
experimental context: Homo sapiens, 48 h, read-out: growth percent
Give a bare numeral; the unit % is implied.

The examples below pair each entry with its known result.
compound: COc1cc(CNC(=O)CCCC/C=C/C(C)C)ccc1OCc1cn(-c2ccc(Cl)c(Cl)c2)nn1 [14d]
measurement target: NCI/ADR-RES
activity at 10 µM [%]: 91.1

compound: CCc1ccc(-n2cc(COc3ccc(CNC(=O)CCCC/C=C/C(C)C)cc3OC)nn2)cc1 [14o]
measurement target: NCI/ADR-RES
activity at 10 µM [%]: 87.7

Now look at this entry.
Task item: // lookup activity at 10 µM for COc1cc(CNC(=O)CCCC/C=C/C(C)C)ccc1OCc1cn(-c2ccccc2Cl)nn1 [14c]
Reply: 92

###

Tested on: NCI-H522
experimental protocol: NCI-60 single-dose antiproliferative screen
Format: cell-based
experimental context: Homo sapiens, NCI-H522, 48 h, read-out: growth percent
# reported activity at 10 µM; entries follow
Give a bare numeral; the unit % is implied.

The examples below pair each entry with its known result.
compound: COc1cc(CNC(=O)CCCC/C=C/C(C)C)ccc1OCc1cn(-c2ccc(Br)cc2)nn1 [14k]
measurement target: NCI-H522
activity at 10 µM / %: 82.5
--
compound: CCc1ccc(-n2cc(COc3ccc(CNC(=O)CCCC/C=C/C(C)C)cc3OC)nn2)cc1 [14o]
measurement target: NCI-H522
activity at 10 µM / %: 65.9

Now look at this entry.
Task item: // lookup activity at 10 µM for COc1cc(CNC(=O)C[C@H](C)CCC=C(C)C)ccc1OCc1cn(-c2ccc(Cl)cc2)nn1 [18b]
Reply: 62.9

###

Tested on: UACC-257
experimental protocol: NCI-60 single-dose antiproliferative screen
Format: cell-based
experimental context: Homo sapiens, UACC-257, 48 h, read-out: growth percent
experimental endpoint: activity at 10 µM (%)
Give a bare numeral; the unit % is implied.

The examples below pair each entry with its known result.
molecule: COc1cc(CNC(=O)CCCC/C=C/C(C)C)ccc1OCc1cn(-c2ccc(Cl)c(Cl)c2)nn1 [14d]
unit spec: %
activity at 10 µM: 89.2
--
molecule: COc1cc(CNC(=O)CCCC/C=C/C(C)C)ccc1OCc1cn(-c2ccc(F)cc2)nn1 [14h]
unit spec: %
activity at 10 µM: 90.2
--
molecule: COc1cc(CNC(=O)CCCC/C=C/C(C)C)ccc1OCc1cn(-c2ccccc2Cl)nn1 [14c]
unit spec: %
activity at 10 µM: 87.9

Task item: // lookup activity at 10 µM for COc1cc(CNC(=O)CCCC/C=C/C(C)C)ccc1OCc1cn(-c2ccc(Br)cc2)nn1 [14k]
Reply: 90.5

Task item: // lookup activity at 10 µM for COc1cc(CNC(=O)CCCC/C=C/C(C)C)ccc1OCc1cn(-c2ccc(Cl)cc2)nn1 [14a]
Reply: 91.6
